Where these numbers come from: patent US20240115557A1

// reported Z socre Rep2 for each item listed
# assay-target: SpCas9 (Streptococcus pyogenes serotype M1, UniProt Q99ZW2)
# Sequence (Q99ZW2 whole entry): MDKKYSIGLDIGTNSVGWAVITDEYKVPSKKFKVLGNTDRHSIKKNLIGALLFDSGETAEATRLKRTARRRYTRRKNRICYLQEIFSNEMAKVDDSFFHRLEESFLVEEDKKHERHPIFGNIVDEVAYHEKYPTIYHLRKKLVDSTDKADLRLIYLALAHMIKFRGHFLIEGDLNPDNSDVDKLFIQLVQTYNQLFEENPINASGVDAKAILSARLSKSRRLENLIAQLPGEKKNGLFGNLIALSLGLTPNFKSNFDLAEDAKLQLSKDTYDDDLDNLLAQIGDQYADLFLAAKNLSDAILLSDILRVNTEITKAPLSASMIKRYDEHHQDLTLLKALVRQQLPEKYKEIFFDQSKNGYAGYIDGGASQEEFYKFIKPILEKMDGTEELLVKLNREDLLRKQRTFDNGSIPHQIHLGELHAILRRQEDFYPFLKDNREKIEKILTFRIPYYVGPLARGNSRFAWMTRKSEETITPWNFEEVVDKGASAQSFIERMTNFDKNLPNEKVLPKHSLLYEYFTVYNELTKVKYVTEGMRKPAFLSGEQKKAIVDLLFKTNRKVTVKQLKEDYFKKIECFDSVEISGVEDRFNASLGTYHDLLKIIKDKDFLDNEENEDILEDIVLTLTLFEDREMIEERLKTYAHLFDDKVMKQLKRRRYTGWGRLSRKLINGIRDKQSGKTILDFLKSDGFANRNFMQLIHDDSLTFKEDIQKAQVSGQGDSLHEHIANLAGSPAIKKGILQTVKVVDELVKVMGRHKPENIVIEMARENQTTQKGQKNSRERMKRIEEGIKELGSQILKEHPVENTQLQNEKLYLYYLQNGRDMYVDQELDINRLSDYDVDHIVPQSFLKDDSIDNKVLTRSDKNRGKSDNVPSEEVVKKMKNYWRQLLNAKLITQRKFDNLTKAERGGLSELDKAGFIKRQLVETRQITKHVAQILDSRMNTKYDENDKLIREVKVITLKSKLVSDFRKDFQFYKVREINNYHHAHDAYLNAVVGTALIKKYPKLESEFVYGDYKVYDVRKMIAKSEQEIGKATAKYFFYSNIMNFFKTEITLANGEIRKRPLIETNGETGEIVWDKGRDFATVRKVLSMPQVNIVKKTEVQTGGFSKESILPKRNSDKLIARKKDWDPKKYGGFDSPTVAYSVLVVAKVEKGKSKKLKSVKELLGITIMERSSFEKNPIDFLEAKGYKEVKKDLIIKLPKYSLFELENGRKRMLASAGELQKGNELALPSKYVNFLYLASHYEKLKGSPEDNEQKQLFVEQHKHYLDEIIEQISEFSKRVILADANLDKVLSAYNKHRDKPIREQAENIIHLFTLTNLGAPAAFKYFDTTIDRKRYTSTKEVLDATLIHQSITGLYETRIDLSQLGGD
# assay-overview: eGFP disruption assay, SpCas9, U2OS.eGFP.PEST cells
# Type: cell-based
# condition-summary: replicate 2
reported-property: Z socre Rep2

COc1ccc(-c2cc(N3CCN(C(=O)c4ccc(C(C)(C)C)cc4)CC3)ncn2)cc1	−0.27
CN(C)c1ccc(-c2nn3c(-c4ccc5ccccc5n4)nnc3s2)cc1	−0.79
O=C(NC1CCCCC1)c1cccc(Oc2cc(-c3ccccc3)ncn2)c1	−1.03
O=C(Nc1ccc(F)c(Cl)c1)c1ccc(Oc2ccnc(-c3ccc(F)cc3)n2)cc1	−1.37

###

# assay-target: SaCas9 (Staphylococcus aureus, UniProt J7RUA5)
# Sequence (J7RUA5 1-1053): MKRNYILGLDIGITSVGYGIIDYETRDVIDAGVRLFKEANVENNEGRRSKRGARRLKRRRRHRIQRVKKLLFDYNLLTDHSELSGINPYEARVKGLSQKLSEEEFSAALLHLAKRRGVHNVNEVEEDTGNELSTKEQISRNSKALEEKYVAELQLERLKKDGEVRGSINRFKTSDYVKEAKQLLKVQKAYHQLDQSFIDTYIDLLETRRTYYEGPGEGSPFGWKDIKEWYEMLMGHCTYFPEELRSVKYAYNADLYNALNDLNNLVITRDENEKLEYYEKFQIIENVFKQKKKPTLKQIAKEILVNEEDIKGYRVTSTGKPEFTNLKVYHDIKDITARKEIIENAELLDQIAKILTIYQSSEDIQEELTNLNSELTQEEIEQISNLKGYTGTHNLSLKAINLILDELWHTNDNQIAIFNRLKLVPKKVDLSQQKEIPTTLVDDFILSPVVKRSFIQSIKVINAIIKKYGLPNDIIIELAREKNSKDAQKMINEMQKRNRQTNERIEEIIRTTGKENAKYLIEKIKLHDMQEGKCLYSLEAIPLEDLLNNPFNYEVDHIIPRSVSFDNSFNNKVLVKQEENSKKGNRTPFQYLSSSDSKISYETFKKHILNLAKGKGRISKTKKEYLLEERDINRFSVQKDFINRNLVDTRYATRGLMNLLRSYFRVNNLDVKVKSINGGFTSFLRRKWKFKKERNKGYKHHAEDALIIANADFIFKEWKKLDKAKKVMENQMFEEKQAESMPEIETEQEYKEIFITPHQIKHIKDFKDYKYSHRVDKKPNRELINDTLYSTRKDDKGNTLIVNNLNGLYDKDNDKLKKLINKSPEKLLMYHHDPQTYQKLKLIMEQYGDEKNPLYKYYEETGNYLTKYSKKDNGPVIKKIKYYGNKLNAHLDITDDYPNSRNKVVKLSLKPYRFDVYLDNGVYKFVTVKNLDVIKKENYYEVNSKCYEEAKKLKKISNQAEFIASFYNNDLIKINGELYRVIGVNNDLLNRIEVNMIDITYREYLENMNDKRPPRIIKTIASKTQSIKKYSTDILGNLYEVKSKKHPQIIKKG
# assay-overview: Strand displacement assay, SaCas9 primary screen
# Assay type: biochemical
# condition-summary: SaCas9 primary screen, Auto Zscore, replicate 1
Listed next: entries and their corresponding Auto Zscore Rep 1.
reported-property: Auto Zscore Rep 1

COc1ccc(-c2[nH]nc3nc(-c4ccc(O)c(O)c4)cc(C(=O)O)c23)cc1	−1.82
Fc1ccc(-c2nn3c(CSc4ccccc4)nnc3s2)cc1	0.8466
CS(=O)(=O)Nc1cnc(N2CCC(CCN3CCOCC3)CC2)c(C(=O)O)c1	0.3628
Cc1ccc(OCc2nn3c(-c4ccoc4C)nnc3s2)cc1	−0.1513
Cc1cc(Nc2ccccc2)n(-c2ccccc2C(=O)O)n1	0.05393
CCN(Cc1ccccc1)c1ccc(NS(=O)(=O)CC)cc1C(=O)O	−0.2858
c1ccc(-c2nnc3sc(-c4ccncc4)nn23)nc1	−0.3775
O=C(CSc1ccc2ccccc2c1)N1CCN(c2ccc(O)cc2)CC1	−2.33
C=C1C(C(=O)NCc2ccco2)C1C(=O)NCc1ccco1 (stereo not shown)	0.7411
O=c1oc2c(O)c(O)ccc2c2c1CCC2	−0.8066
CCOc1ccc(NC(=O)c2oc3cc(C)ccc3c2C)c2cccnc12	−0.413
COc1ccc(-c2nc(N)s[n+]2-c2ccccc2)cc1	0.5613
CCN(CC)c1ncc(NS(=O)(=O)c2cc(C)c(C)cc2C)cc1C(=O)O	0.2771
c1ccc(CCCNc2nn3nnnc3c3ccccc23)cc1	0.8868
CCOC(=O)c1c(NC(=O)CSc2nnc3cc(C)c4cccc(OC)c4n23)sc(C)c1C	0.0101
Cc1cccc(NC(=O)C2CCCN(c3ccc(-c4ccccc4)nn3)C2)c1 (stereo not shown)	−0.4204
